Tested on: HepG2 cells
Assay: Test Example 2: inhibition of apolipoprotein B secretion from HepG2 cells, ELISA (also used for metabolites in Test Example 8)
Assay type: cell-based
Conditions: Homo sapiens, 24 hours, apo B in supernatant by ELISA, read-out: Test Example 2 Inhibition of apo B secretion IC50
# strict inequality: IC50 < 4 nM yields 1, everything else yields -1

Lookup: Hello, is IC50 of the following compound strictly smaller than 4 nM? `CCCOC(=O)C(COC(=O)Cc1ccc(NC(=O)c2ccccc2-c2ccc(C(F)(F)F)cc2)cc1)(C(=O)OCCC)c1ccccc1`
Found: -1

Lookup: Find out if reported IC50 for `CCOC(=O)C(COC(=O)Cc1ccc(NC(=O)c2ccccc2-c2ccc(C(F)(F)F)cc2)c(N(CC)CC)c1)(C(=O)OCC)c1ccccc1` is less than 4 nM
Found: -1

Lookup: Field: below-cutoff. Rule: recorded IC50 strictly less than 4 nM. Subject: `CCNC(=O)C(COC(=O)c1ccc(CNC(=O)c2ccccc2-c2ccc(C(F)(F)F)cc2)cc1)(C(=O)NCC)c1ccccc1`
Found: -1

Lookup: Criterion: IC50 strictly below 4 nM. Is it met by `CCOC(=O)C(COC(=O)Cc1ccc(NC(=O)c2cccc(C)c2-c2ccc(C(F)(F)F)cc2)c(C(=O)N(C)C)c1)(C(=O)OCC)c1ccccc1` ?
Found: -1

Lookup: Bench note: check whether `CCOC(=O)C(COC(=O)Cc1ccc(NC(=O)c2ccccc2-c2ccc(C(F)(F)F)cc2)c(C(=O)N(C)C)c1)(C(=O)OCC)c1ccc(Cl)cc1` shows IC50 below 4 nM
Found: 1

Lookup: Consider the compound `CCOC(=O)C(COC(=O)Cc1ccc(NC(=O)c2ccccc2-c2ccc(C(F)(F)F)cc2)c(C(=O)N(C)C)c1)(C(=O)OCC)c1ccccc1OC` . Is its IC50 strictly less than 4 nM?
Found: -1

###

Assay: Test Example 6: determination of the concentration in plasma (unchanged form and metabolite, orbital venous plexus and portal vein, LC/MS)
Assay type: in vivo
Conditions: hamster, plasma from portal vein blood, oral; 2 h after 30 mg/kg p.o., Syrian hamsters; read-out: Concentration in plasma, unaltered form, blood of portal vein
QUANTITY MEASURED: concentration at 2 h

Lookup: Give recorded concentration at 2 h. `CCOC(=O)C(COC(=O)Cc1ccc(OC(=O)c2ccccc2-c2ccc(C(F)(F)F)cc2)cc1)(C(=O)OCC)c1ccccc1`
Found: < 200 nM

Lookup: Give the reported value of concentration at 2 h for this record: `CCOC(=O)C(COC(=O)Cc1ccc(NC(=O)c2ccccc2-c2ccc(C(F)(F)F)cc2)c(C(=O)N(C)C)c1)(C(=O)OCC)c1ccccc1`
Found: 30 nM

Lookup: Identify the reported concentration at 2 h for the following entry. `COC(=O)C(COC(=O)Cc1ccc(NC(=O)c2ccccc2-c2ccc(C(F)(F)F)cc2)cc1)(C(=O)OC)c1ccccc1`
Found: < 200 nM

Lookup: Could you please provide reported concentration at 2 h for `O=C(Cc1ccc(NC(=O)c2ccccc2-c2ccc(C(F)(F)F)cc2)cc1)OCC(C(=O)NCC(F)(F)F)(C(=O)NCC(F)(F)F)c1ccccc1` ? Thanks!
Found: < 200 nM

###

System: HepG2 cells
Assay: Test Example 2: inhibition of apolipoprotein B secretion from HepG2 cells, ELISA (also used for metabolites in Test Example 8)
Assay type: cell-based
Conditions: Homo sapiens, 24 hours, apo B in supernatant by ELISA, read-out: Test Example 2 Inhibition of apo B secretion IC50
Kindly state pIC50 for each of the entries shown.
To interpret pIC50, take it as minus log10 of a concentration measured in moles per litre.

Lookup: Provide one value: measured pIC50 of CCOC(=O)C(COC(=O)Cc1ccc(NC(=O)c2ccc(Cl)cc2-c2ccc(C(F)(F)F)cc2)c(C(=O)N(C)C)c1)(C(=O)OCC)c1ccccc1 [Example 2-54]
Found: 8.07

Lookup: Please report pIC50 for the following compound: CCOC(=O)C(CCOC(=O)C1CCC(NC(=O)c2ccccc2-c2ccc(C(F)(F)F)cc2)CC1)(C(=O)OCC)c1ccccc1 (stereo not drawn) [Example 7-5]
Found: 6.63

Lookup: Give the reported pIC50 for this compound. COCCNC(=O)C(COC(=O)Cc1ccc(NC(=O)c2ccccc2-c2ccc(C(F)(F)F)cc2)cc1)(C(=O)NCCOC)c1ccccc1 [Example 1-73]
Found: 7.41

Lookup: # return recorded pIC50 for entry O=C(OCCC1(C(=O)NCC(F)(F)F)c2ccccc2-c2ccccc21)c1ccc(NC(=O)c2ccccc2-c2ccc(C(F)(F)F)cc2)cc1 [Example 6]
Found: 7.23

Lookup: Look up and report measured pIC50 for this entry: CCOC(=O)C(CCOC(=O)Cc1ccc(NC(=O)c2ccc(C)cc2-c2ccc(C(F)(F)F)cc2)c(C(=O)N(C)C)c1)(C(=O)OCC)c1ccccc1 [Example 2-81]
Found: 9.02

Lookup: Entry CCNC(=O)C(COC(=O)Cc1ccc(NC(=O)c2ccccc2-c2ccc(C(F)(F)F)cc2)c(C)c1)(C(=O)NCC)c1ccccc1 [Example 1-45] needs its pIC50 filled in; supply it.
Found: 9.34

src = patent US7625948B2
